Experimental Target: T1, D1 domain of human IL-2Rγ extracellular domain expressed with a C-terminal myc-myc-hexahistidine tag (human)
T1 construct: also called human IL2Rγ domain 1
T1 chain: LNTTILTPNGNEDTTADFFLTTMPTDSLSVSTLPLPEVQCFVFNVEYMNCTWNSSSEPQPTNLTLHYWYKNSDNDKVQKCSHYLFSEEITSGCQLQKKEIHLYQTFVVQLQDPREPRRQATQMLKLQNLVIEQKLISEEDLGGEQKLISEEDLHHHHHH
Assay Remarks: SPR, mAb captured on anti-hFc, 37 C
Experimental Endpoint: Kd (nM)

Binder | Observed Value
H4H12863P (antibody, human IgG4 S228P, kappa, V domains shown, human IgG4) VH: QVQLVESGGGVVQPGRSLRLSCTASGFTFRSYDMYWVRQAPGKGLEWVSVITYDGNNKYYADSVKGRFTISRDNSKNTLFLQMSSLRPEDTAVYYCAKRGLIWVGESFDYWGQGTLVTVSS VL: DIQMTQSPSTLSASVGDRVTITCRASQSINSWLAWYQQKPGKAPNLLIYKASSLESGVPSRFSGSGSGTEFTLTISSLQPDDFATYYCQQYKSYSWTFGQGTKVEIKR | 8.69
